testedTarget: UniProtKB P21397
assayText: Inhibition of recombinant human MAO-A expressed in Sf9 cells using p-tyramine as substrate preincubated for 15 mins followed by substrate addition for 60 mins by […] assay
measurementType: IC50 (µM)

Example cases with answers are listed next.
NC(=O)[C@@H]1CCCN1Cc1ccc(OCc2cccc(F)c2)cc1 : 34.2
NC(=O)[C@@H]1CCN1Cc1ccc(OCc2cccc(F)c2)cc1Cl : 2.13
NC(=O)[C@@H]1CC(F)(F)CN1Cc1ccc(OCc2cccc(F)c2)cc1 : 14.5
NC(=O)C1CCN1Cc1ccc(OCc2cccc(F)c2)cc1 (racemic) : 18
Cc1cc(OCc2cccc(F)c2)ccc1CN1CC[C@H]1C(N)=O : 8.65

I: C[C@H](NCc1ccc(OCc2cccc(F)c2)cc1Cl)C(N)=O
II: NC(=O)[C@@H]1CCN1Cc1ccc(OCc2cccc(F)c2)cc1F
III: C[C@H](NCc1ccc(OCc2cccc(F)c2)cc1C1CC1)C(N)=O
Ordering criterion: IC50; begin with the maximum. Form entry: labels listed in requested order. III, II, I
(III: 75.2 µM, II: 18.6 µM, I: 12 µM)

---

Species on record: Homo sapiens
assayText: Selectivity index, ratio of IC50 for recombinant human MAO-A to IC50 for recombinant human MAO-B
measurementType: Ratio IC50

NC(=O)[C@@H]1CCN1Cc1ccc(OCc2cccc(F)c2)cc1 : 1280
C[C@H](NCc1ccc(OCc2cccc(F)c2)cc1C1CC1)C(N)=O : 45
NC(=O)[C@@H]1CCN1Cc1ccc(OCc2cccc(F)c2)cc1Cl : 61
NC(=O)[C@@H]1CC(F)(F)CN1Cc1ccc(OCc2cccc(F)c2)cc1 : 14

I: NC(=O)[C@@H]1COCCN1Cc1ccc(OCc2cccc(F)c2)cc1F
II: C#CCN(Cc1ccc(OCc2cccc(F)c2)cc1F)[C@@H](C)C(N)=O
Which value of Ratio IC50 is smaller, the one for I or the one for II ? # reply format: chosen label I

---

testedTarget: Amine oxidase [flavin-containing] A (Homo sapiens, UniProt P21397)
Sequence (P21397 whole entry): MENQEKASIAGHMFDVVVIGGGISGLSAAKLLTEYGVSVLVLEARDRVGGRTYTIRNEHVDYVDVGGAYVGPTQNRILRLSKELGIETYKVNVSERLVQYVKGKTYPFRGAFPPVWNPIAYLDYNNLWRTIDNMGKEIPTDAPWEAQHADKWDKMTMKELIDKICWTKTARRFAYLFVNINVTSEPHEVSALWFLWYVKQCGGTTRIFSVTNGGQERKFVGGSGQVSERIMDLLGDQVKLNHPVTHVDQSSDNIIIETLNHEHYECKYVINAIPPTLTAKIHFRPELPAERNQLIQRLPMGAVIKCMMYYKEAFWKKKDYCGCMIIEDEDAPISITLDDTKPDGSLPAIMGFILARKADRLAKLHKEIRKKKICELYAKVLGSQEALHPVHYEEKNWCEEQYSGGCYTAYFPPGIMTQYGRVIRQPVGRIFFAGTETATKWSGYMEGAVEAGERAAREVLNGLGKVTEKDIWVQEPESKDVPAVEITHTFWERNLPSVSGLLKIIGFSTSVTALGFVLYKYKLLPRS
assayText: Inhibition of recombinant human MAO-A expressed in Sf9 cells using p-tyramine as substrate preincubated for 15 mins followed by substrate addition for 60 mins by […] assay
measurementType: IC50 (µM)

Example cases with answers are listed next.
C#CCN(Cc1ccc(OCc2cccc(F)c2)cc1C)[C@@H](C)C(N)=O : 6.4
C#CCN(Cc1ccc(OCc2cccc(F)c2)cc1)[C@@H](C)C(N)=O : 7.79

I: C#CCN(Cc1ccc(OCc2cccc(F)c2)cc1Cl)[C@@H](C)C(N)=O
II: CC1(C)C[C@@H](C(N)=O)N(Cc2ccc(OCc3cccc(F)c3)cc2)C1
III: NC(=O)[C@@H]1CCN1Cc1ccc(OCc2cccc(F)c2)cc1
IV: C#CCN(Cc1ccc(OCc2cccc(F)c2)cc1F)[C@@H](C)C(N)=O
V: NC(=O)[C@@H]1COCCN1Cc1ccc(OCc2cccc(F)c2)cc1F
Would you mind ranking these molecules by ascending IC50? Form entry: labels listed in requested order. I, IV, II, III, V

---

testedTarget: Amine oxidase [flavin-containing] B (Homo sapiens)
assayText: Inhibition of recombinant human MAO-B expressed in Sf9 cells using benzylamine as substrate preincubated for 15 mins followed by substrate addition for 60 mins by Luminex assay
pIC50: −log10 of the molar value.
measurementType: pIC50

Example cases with answers are listed next.
NC(=O)[C@@H]1CCN1Cc1ccc(OCc2cccc(F)c2)cc1 : 7.68
NC(=O)C1CN(Cc2ccc(OCc3cccc(F)c3)cc2)C1 : 5.85
Cc1cc(OCc2cccc(F)c2)ccc1CN[C@@H](C)C(N)=O : 7.16
C#CCN(Cc1ccc(OCc2cccc(F)c2)cc1F)[C@@H](C)C(N)=O : 7.03
NC(=O)[C@@H]1CCCN1Cc1ccc(OCc2cccc(F)c2)cc1 : 6.69
CC1(C)C[C@@H](C(N)=O)N(Cc2ccc(OCc3cccc(F)c3)cc2)C1 : 5.85
NC(=O)[C@@H]1CCN1Cc1ccc(OCc2cccc(F)c2)cc1F : 7.59
NC(=O)[C@@H]1CC(F)(F)CN1Cc1ccc(OCc2cccc(F)c2)cc1 : 5.97
NC(=O)[C@@H]1COCCN1Cc1ccc(OCc2cccc(F)c2)cc1F : 5.54
NC(=O)C1CCN1Cc1ccc(OCc2cccc(F)c2)cc1 (racemic) : 7.34

a: CC1(C)C[C@@H](C(N)=O)N(Cc2ccc(OCc3cccc(F)c3)cc2F)C1
b: C[C@H](NCc1ccc(OCc2cccc(F)c2)cc1C1CC1)C(N)=O
c: Cc1cc(OCc2cccc(F)c2)ccc1CN1CC[C@H]1C(N)=O
Ordering criterion: pIC50; begin with the maximum. Form entry: labels listed in requested order. c, b, a
(c: 6.59, b: 5.78, a: 5.20)

A: C#CCN(Cc1ccc(OCc2cccc(F)c2)cc1)[C@@H](C)C(N)=O
B: C#CCN(Cc1ccc(OCc2cccc(F)c2)cc1C)[C@@H](C)C(N)=O
C: C#CCN(Cc1ccc(OCc2cccc(F)c2)cc1Cl)[C@@H](C)C(N)=O
Ordering criterion: pIC50; begin with the maximum. Form entry: labels listed in requested order. C, B, A
(C: 7.17, B: 6.49, A: 6.28)

A: NC(=O)[C@@H]1COCCN1Cc1ccc(OCc2cccc(F)c2)cc1
B: C[C@H](NCc1ccc(OCc2cccc(F)c2)cc1F)C(N)=O
C: C[C@H](NCc1ccc(OCc2cccc(F)c2)cc1Cl)C(N)=O
Ordering criterion: pIC50; begin with the maximum. Form entry: labels listed in requested order. C, B, A

---

testedTarget: Amine oxidase [flavin-containing] A (Homo sapiens)
assayText: Inhibition of recombinant human MAO-A expressed in Sf9 cells using p-tyramine as substrate preincubated for 15 mins followed by substrate addition for 60 mins by […] assay
In this section we review reported IC50 values for a set of molecules.

C[C@H](NCc1ccc(OCc2cccc(F)c2)cc1F)C(N)=O : > 10 µM
Cc1cc(OCc2cccc(F)c2)ccc1CN[C@@H](C)C(N)=O : > 10 µM

// switching to the query molecule
If you can, please state the reported IC50 value of "NC(=O)C1CN(Cc2ccc(OCc3cccc(F)c3)cc2)C1" . > 10 µM

---

Organism: Homo sapiens
assayText: Selectivity index, ratio of IC50 for recombinant human MAO-A to IC50 for recombinant human MAO-B
measurementType: Ratio IC50

NC(=O)C1CCN1Cc1ccc(OCc2cccc(F)c2)cc1 (racemic) : 391

1: C#CCN(Cc1ccc(OCc2cccc(F)c2)cc1C)[C@@H](C)C(N)=O
2: NC(=O)[C@@H]1CCN1Cc1ccc(OCc2cccc(F)c2)cc1F
I'd appreciate it if you could identify which of 1 and 2 has the greater Ratio IC50. # reply format: chosen label 2

a: C#CCN(Cc1ccc(OCc2cccc(F)c2)cc1)[C@@H](C)C(N)=O
b: C#CCN(Cc1ccc(OCc2cccc(F)c2)cc1Cl)[C@@H](C)C(N)=O
c: NC(=O)[C@@H]1CCCN1Cc1ccc(OCc2cccc(F)c2)cc1
d: C[C@H](NCc1ccc(OCc2cccc(F)c2)cc1Cl)C(N)=O
e: Cc1cc(OCc2cccc(F)c2)ccc1CN1CC[C@H]1C(N)=O
Ordering criterion: Ratio IC50; begin with the maximum. Form entry: labels listed in requested order. d, c, b, e, a
(d: 427, c: 168, b: 82, e: 34, a: 15)

---

testedTarget: Amine oxidase [flavin-containing] B (Homo sapiens, UniProt P27338)
Sequence (P27338 whole entry): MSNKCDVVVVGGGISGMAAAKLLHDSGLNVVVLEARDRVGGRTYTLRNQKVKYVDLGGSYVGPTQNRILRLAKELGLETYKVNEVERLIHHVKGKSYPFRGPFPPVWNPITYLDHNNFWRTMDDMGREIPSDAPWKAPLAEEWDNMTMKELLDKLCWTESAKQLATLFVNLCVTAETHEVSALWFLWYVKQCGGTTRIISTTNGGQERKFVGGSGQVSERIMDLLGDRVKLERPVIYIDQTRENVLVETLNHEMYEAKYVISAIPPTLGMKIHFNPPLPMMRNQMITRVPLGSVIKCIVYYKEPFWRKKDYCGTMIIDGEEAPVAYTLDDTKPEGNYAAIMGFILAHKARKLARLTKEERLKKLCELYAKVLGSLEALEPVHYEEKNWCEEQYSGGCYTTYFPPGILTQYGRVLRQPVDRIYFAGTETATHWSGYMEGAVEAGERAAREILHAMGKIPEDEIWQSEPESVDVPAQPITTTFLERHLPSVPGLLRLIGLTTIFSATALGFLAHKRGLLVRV
assayText: Inhibition of recombinant human MAO-B expressed in Sf9 cells using benzylamine as substrate preincubated for 15 mins followed by substrate addition for 60 mins by Luminex assay
pIC50: −log10 of the molar value.
In this section we review reported pIC50 values for a set of compounds.

Example cases with answers are listed next.
C[C@H](NCc1ccc(OCc2cccc(F)c2)cc1)C(=O)NCCN1CCOCC1 : < 5.00
NC(=O)[C@@H]1CCN1Cc1ccc(OCc2cccc(F)c2)cc1Cl : 7.46

// switching to the query compound
If you can, please state the reported pIC50 value of "C#CCN(C)C(=O)[C@H](C)NCc1ccc(OCc2cccc(F)c2)cc1" . < 5.00

---

Species: Homo sapiens
assayText: Selectivity index, ratio of IC50 for recombinant human MAO-A to IC50 for recombinant human MAO-B
In this section we review reported Ratio IC50 values for a set of molecules.

Example cases with answers are listed next.
NC(=O)C1CN(Cc2ccc(OCc3cccc(F)c3)cc2)C1 : > 7
C[C@H](NCc1ccc(OCc2cccc(F)c2)cc1F)C(N)=O : > 163
CC1(C)C[C@@H](C(N)=O)N(Cc2ccc(OCc3cccc(F)c3)cc2)C1 : 12

// switching to the query molecule
If you can, please state the reported Ratio IC50 value of "Cc1cc(OCc2cccc(F)c2)ccc1CN[C@@H](C)C(N)=O" . > 140
